As shown below, each of these compounds has a reported relative viability value.
- Test system: UMC-11
- test.details: relative viability (nuclei count vs DMSO), 5 days (fraction); higher = more cells survive
- particulars: first compound 4 µM
Give the value as a plain number.

Recorded relative viability, per entry:
Indicate the recorded relative viability value for this compound: COc1cc(N2CCC(C(N)=O)CC2)ccc1Nc1nc(N)c(Cl)c(Nc2ccccc2S(=O)(=O)C(C)C)n1 [HG-5-88-01] + CCNC(=O)c1noc(-c2cc(C(C)C)c(O)cc2O)c1-c1ccc(CN2CCOCC2)cc1 [Luminespib] (partner 0.01 µM)
1.12

Indicate the recorded relative viability value for this compound: Clc1ccc(Nc2nnc(Cc3ccncc3)c3ccccc23)cc1 [Vatalanib] + C[C@@H](Oc1cc(-c2cnn(C3CCNCC3)c2)cnc1N)c1c(Cl)ccc(F)c1Cl [Crizotinib] (partner 1 µM)
0.629

Indicate the recorded relative viability value for this compound: COc1cc(N2CCC(C(N)=O)CC2)ccc1Nc1nc(N)c(Cl)c(Nc2ccccc2S(=O)(=O)C(C)C)n1 [HG-5-88-01] + Cc1nc(Nc2ncc(C(=O)Nc3c(C)cccc3Cl)s2)cc(N2CCN(CCO)CC2)n1 [Dasatinib] (partner 0.075 µM)
0.409

Continuing:
Indicate the recorded relative viability value for this compound: COc1cc(N2CCC(C(N)=O)CC2)ccc1Nc1nc(N)c(Cl)c(Nc2ccccc2S(=O)(=O)C(C)C)n1 [HG-5-88-01] + O=C(CCCCCCC(=O)Nc1ccccc1)NO [Vorinostat] (partner 1 µM)
0.288
